Give measured relative viability for each item. Keep answers brief.
# Test system: PC-14
# assay.details: relative viability (nuclei count vs DMSO), 5 days (fraction); higher = more cells survive
# test.settings: first compound 0.04 µM
Answers are plain numbers.

Solved entries:
{"molecule": "O=C(O)c1ccc(-c2c[nH]c3ncc(-c4ccccc4)cc23)cc1C1CCCC1 + N=C(N)NC(=N)NCCc1ccccc1 [Phenformin] (partner 250 µM)", "relative viability": 0.588}
{"molecule": "O=C(O)c1ccc(-c2c[nH]c3ncc(-c4ccccc4)cc23)cc1C1CCCC1 + CS(=O)(=O)CCNCc1ccc(-c2ccc3ncnc(Nc4ccc(OCc5cccc(F)c5)c(Cl)c4)c3c2)o1 [Lapatinib] (partner 2 µM)", "relative viability": 0.304}

Now take the following molecule into account.
Could you tell me which relative viability is on file for O=C(O)c1ccc(-c2c[nH]c3ncc(-c4ccccc4)cc23)cc1C1CCCC1 + Nc1nc2[nH]cc(CCc3ccc(C(=O)N[C@@H](CCC(=O)O)C(=O)O)cc3)c2c(=O)[nH]1 [Pemetrexed] (partner 0.2 µM) ? 0.135

---

# System: NCI-H727
# assay.details: relative viability (nuclei count vs DMSO), 5 days (fraction); higher = more cells survive
# test.settings: first compound 0.08 µM
Output met for records whose relative viability is lower than 0.8, not met for records at or above 0.8.

Observe how each entry below is paired with its result.
{"compound": "C=C1C(=O)O[C@@H](CCCCCCCC)[C@@H]1C(=O)O [C-75] + CS(=O)(=O)CCNCc1ccc(-c2ccc3ncnc(Nc4ccc(OCc5cccc(F)c5)c(Cl)c4)c3c2)o1 [Lapatinib] (partner 2 µM)", "system.tested": "NCI-H727", "class.label": "not met"}
{"compound": "C=C1C(=O)O[C@@H](CCCCCCCC)[C@@H]1C(=O)O [C-75] + Nc1ncn([C@H]2C[C@H](O)[C@@H](CO)O2)c(=O)n1 [Decitabine] (partner 2 µM)", "system.tested": "NCI-H727", "class.label": "not met"}
{"compound": "Oc1nc(-c2ccc(C(F)(F)F)cc2)nc2c1CSCC2 [XAV939] + CCNC(=O)c1noc(-c2cc(C(C)C)c(O)cc2O)c1-c1ccc(CN2CCOCC2)cc1 [Luminespib] (partner 0.01 µM)", "system.tested": "NCI-H727", "class.label": "met"}
{"compound": "C=C1C(=O)O[C@@H](CCCCCCCC)[C@@H]1C(=O)O [C-75] + CC(C)C[C@H](NC(=O)[C@H](Cc1ccccc1)NC(=O)c1cnccn1)B(O)O [Bortezomib] (partner 0.002 µM)", "system.tested": "NCI-H727", "class.label": "met"}

// switching to the query compound
Please indicate whether the reported relative viability of Oc1nc(-c2ccc(C(F)(F)F)cc2)nc2c1CSCC2 [XAV939] + CC(=O)c1c(C)c2cnc(Nc3ccc(N4CCNCC4)cn3)nc2n(C2CCCC2)c1=O [Palbociclib] (partner 0.5 µM) is strictly below 0.8. met

---

# Tested on: LCLC-103H
# assay.details: relative viability (nuclei count vs DMSO), 5 days (fraction); higher = more cells survive
# test.settings: first compound 2.53 µM
# fulfilled = relative viability below 0.6 (exclusive); not fulfilled = relative viability at/above 0.6

Would you please look over these solved cases?
{"compound": "C=C1C(=O)O[C@@H](CCCCCCCC)[C@@H]1C(=O)O [C-75] + NC(=O)Nc1cc(-c2cccc(F)c2)sc1C(=O)N[C@H]1CCCNC1 [AZD7762] (partner 0.2 µM)", "class.label": "not fulfilled"}
{"compound": "C=C1C(=O)O[C@@H](CCCCCCCC)[C@@H]1C(=O)O [C-75] + C[C@]1(O)C[C@@H](c2nc(-c3ccc4ccc(-c5ccccc5)nc4c3)c3c(N)nccn32)C1 [Linsitinib] (partner 1 µM)", "class.label": "not fulfilled"}
{"compound": "Oc1nc(-c2ccc(C(F)(F)F)cc2)nc2c1CSCC2 [XAV939] + O=C(CCCCCCC(=O)Nc1ccccc1)NO [Vorinostat] (partner 1 µM)", "class.label": "not fulfilled"}
{"compound": "C=C1C(=O)O[C@@H](CCCCCCCC)[C@@H]1C(=O)O [C-75] + Cc1cc(Nc2cc(N3CCN(C)CC3)nc(Sc3ccc(NC(=O)C4CC4)cc3)n2)n[nH]1 [Tozasertib] (partner 0.1 µM)", "class.label": "fulfilled"}

Hello, I'm reviewing records and need to know if relative viability of C=C1C(=O)O[C@@H](CCCCCCCC)[C@@H]1C(=O)O [C-75] + CC(=O)c1c(C)c2cnc(Nc3ccc(N4CCNCC4)cn3)nc2n(C2CCCC2)c1=O [Palbociclib] (partner 0.5 µM) is below 0.6. Could you check? fulfilled

Regarding C=C1C(=O)O[C@@H](CCCCCCCC)[C@@H]1C(=O)O [C-75] + CC(C)C[C@H](NC(=O)[C@H](Cc1ccccc1)NC(=O)c1cnccn1)B(O)O [Bortezomib] (partner 0.002 µM) , kindly confirm whether its relative viability is beneath 0.6. not fulfilled

Sourced from the supplement of paper PMC10307832
